# Measured Target: NK1 receptor (Cavia porcellus)
# Construct: as evaluated in guinea pig lungs (Keystone Biologicals, Cleveland, Ohio); tissue Keystone Biologicals, Cleveland, Ohio; host or cells: guinea pig lung membranes
# Sequence (P30547 whole entry): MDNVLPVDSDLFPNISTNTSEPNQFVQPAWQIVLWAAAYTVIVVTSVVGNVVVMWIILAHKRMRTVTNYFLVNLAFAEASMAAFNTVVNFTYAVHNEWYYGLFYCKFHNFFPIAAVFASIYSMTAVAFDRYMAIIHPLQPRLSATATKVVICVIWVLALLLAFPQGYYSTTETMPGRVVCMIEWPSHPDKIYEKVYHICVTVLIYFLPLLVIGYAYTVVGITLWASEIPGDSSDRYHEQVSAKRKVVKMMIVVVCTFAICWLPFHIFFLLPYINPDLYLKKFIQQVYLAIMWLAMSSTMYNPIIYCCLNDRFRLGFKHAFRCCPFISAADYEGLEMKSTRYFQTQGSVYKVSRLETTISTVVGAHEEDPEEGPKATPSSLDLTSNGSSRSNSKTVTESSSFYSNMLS
# Test Protocol: Antagonism of iodinated tachykinin (substance P) binding to NK1 receptors in guinea pig lungs
# Setup Conditions: read-out: NK1 Receptor Binding Affinity, IC50
Measurement Kind: pIC50
Quick note: pIC50 values are minus log10 of concentrations in mol/L.

A selection of reference data follows.
{"columns": ["Compound", "Measurement Kind", "Result Value"],
 "data": [
  ["COc1cc(CN2CCC(CCN3CCC(O)(c4nc5ccccc5n4Cc4ccc(F)cc4)CC3)(Cc3ccc(F)cc3F)C2=O)cc(OC)c1OC (stereo not drawn)", "pIC50", 6.46],
  ["COc1ccc(C2(CCN3CCC(c4nc5ccccc5s4)CC3)CCN(C(=O)c3ccccc3)C2)cc1OC (stereo not drawn)", "pIC50", 5.59],
  ["COc1cc(C(=O)N2CCC(CCN3CCC(C(=O)c4nc5ccccc5n4Cc4ccc(F)cc4)CC3)(c3ccc(F)cc3F)C2)cc(OC)c1OC (stereo not drawn)", "pIC50", 6.49],
  ["COc1cc(C(=O)N2CCC(CCN3CCC(O)(c4nc5ccccc5n4Cc4ccc(F)cc4)CC3)(c3ccc(Cl)c(Cl)c3)C2)cc(OC)c1OC (stereo not drawn)", "pIC50", 7.19],
  ["COc1cc(C(=O)N2CCC(CCN3CCC(C(=O)c4nc5ccccc5n4Cc4ccc(F)cc4)CC3)(c3ccc(C(F)(F)F)cc3)C2)cc(OC)c1OC (stereo not drawn)", "pIC50", 6.96]
]}

Measured pIC50, COc1cc(CN2CCC(CCN3CCC(O)(c4nc5ccccc5n4Cc4ccc(F)cc4)CC3)(Cc3ccc(Cl)c(Cl)c3)C2=O)cc(OC)c1OC (stereo not drawn) : 6.57

Sure, the documented pIC50 for CCOCCn1c(C(=O)C2CCN(CCC3(c4ccccc4)CCN(C(=O)c4cc(OC)c(OC)c(OC)c4)C3)CC2)nc2ccccc21 (stereo not drawn) is 7.62

Measured pIC50, COc1cc(C(=O)N2CCC(CCN3CCC(C(=O)c4nc5ccccc5n4Cc4ccc(F)cc4)CC3)(c3ccc(Cl)c(Cl)c3)C2)cc(OC)c1OC (single isomer, unassigned; (+)) [Example 14] : 7.54

Kindly note the recorded pIC50 for COc1cc(C(=O)N2CCC(CCN3CCC(C(=O)c4nc5ccccc5n4CCOCc4ccco4)CC3)(c3ccccc3)C2)cc(OC)c1OC (stereo not drawn) , which is 8.05

Field pIC50 (entry COc1ccc(CC2(CCN3CCC(O)(c4nc5ccccc5n4Cc4ccc(F)cc4)CC3)CCN(Cc3cc(OC)c(OC)c(OC)c3)C2=O)cc1OC (stereo not drawn) ) reads 6.41

For record COc1cc(C(=O)N2CCC(CCN3CCC(C(=O)c4nc5ccccc5n4Cc4ccc(F)cc4)CC3)(c3ccc(Cl)c(Cl)c3)C2)cc(OC)c1OC (stereo not drawn) [Example 6] the listed pIC50 is 7.07

Noted for COc1cc(CN2CCC(CCN3CCC(O)(c4nc5ccccc5n4Cc4ccc(F)cc4)CC3)(Cc3ccc(F)cc3)C2=O)cc(OC)c1OC (stereo not drawn) : its pIC50 reads 6.94

Briefly, pIC50 measured for COc1ccc(C2(CCN3CCC(C(=O)c4nc5ccccc5n4Cc4ccc(C(=O)O)cc4)CC3)CCN(C(=O)c3cc(OC)c(OC)c(OC)c3)C2)cc1OC (stereo not drawn) : 7.32

Entry under test: COc1ccc(C2(CCN3CCC(C(O)(c4ccccc4)c4ccccc4)CC3)CCN(C(=O)c3cc(OC)c(OC)c(OC)c3)C2)cc1OC (stereo not drawn) . Its pIC50 was 6.91

----------
# Measured Target: H1 receptor (Cavia porcellus, UniProt P31389)
# Construct: A piece of ileum, about 20 cm in length, is removed and cut into 2 cm pieces; from tissue; host or cells: ileum of male Hartley guinea pigs
# Sequence (P31389 whole entry): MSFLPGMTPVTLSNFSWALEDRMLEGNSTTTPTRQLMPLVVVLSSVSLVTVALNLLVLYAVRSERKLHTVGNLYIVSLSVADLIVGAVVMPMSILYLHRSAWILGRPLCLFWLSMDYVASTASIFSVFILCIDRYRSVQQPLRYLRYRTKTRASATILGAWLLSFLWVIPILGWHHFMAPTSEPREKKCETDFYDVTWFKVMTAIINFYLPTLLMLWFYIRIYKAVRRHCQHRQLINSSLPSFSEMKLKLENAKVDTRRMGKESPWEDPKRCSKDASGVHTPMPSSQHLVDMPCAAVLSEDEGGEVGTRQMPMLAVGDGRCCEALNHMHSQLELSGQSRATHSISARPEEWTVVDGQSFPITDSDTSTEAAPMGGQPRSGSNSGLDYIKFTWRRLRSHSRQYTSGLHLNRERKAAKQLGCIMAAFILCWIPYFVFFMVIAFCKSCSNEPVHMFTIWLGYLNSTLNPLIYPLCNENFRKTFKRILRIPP
# Test Protocol: Histamine (H1) antagonism in guinea pig ileum
# Type: cell-based
# Setup Conditions: read-out: H1 Receptor Antagonism, pA2, in vitro (converted)
Measurement Kind: Kb
Answer format: value, then unit.

Study these solved cases before continuing.
{"columns": ["Molecule", "Result Value"],
 "data": [
  ["CC(C)Oc1cccc(CC(=O)N2CCC(CCN3CCC(C(=O)c4nc5ccccc5n4Cc4ccc(F)cc4)CC3)(c3ccc4c(c3)OCO4)C2)c1 (centres unmarked)", "61.7 nM"],
  ["COc1cc(CN2CCC(CCN3CCC(O)(c4nc5ccccc5n4Cc4ccc(F)cc4)CC3)(Cc3ccc(Cl)c(Cl)c3)C2=O)cc(OC)c1OC (centres unmarked)", "479 nM"]
]}

Kindly note the recorded Kb for COc1cc(C(=O)N2CCC(CCN3CCC(C(=O)c4nc5ccccc5n4Cc4ccccn4)CC3)(c3ccccc3)C2)cc(OC)c1OC (centres unmarked) , which is 25.1 nM

The value of Kb measured for the molecule COc1cc(C(=O)N2CCC(CCN3CCC(C(=O)c4nc5ccccc5n4Cc4ccc(F)cc4)CC3)(c3ccccc3)C2)cc(OC)c1OC (centres unmarked) turned out to be 33.9 nM

Value of measured Kb for the entry CCOCCn1c(C(=O)C2CCN(CCC3(c4ccc(Cl)c(Cl)c4)CCN(C(=O)c4cc(OC)c(OC)c(OC)c4)C3)CC2)nc2ccccc21 (centres unmarked) : 105 nM

Summary for this molecule, COc1ccc(C2(CCN3CCC(C(=O)c4nc5ccccc5n4Cc4ccc(C(=O)O)cc4)CC3)CCN(C(=O)c3cc(OC)c(OC)c(OC)c3)C2)cc1OC (centres unmarked) : Kb is 6760 nM

The molecule listed as COc1cc(C(=O)N2CCC(CCN3CCC(C(=O)c4nc5ccccc5n4Cc4ccc(F)cc4)CC3)(c3ccc(F)cc3F)C2)cc(OC)c1OC (centres unmarked) shows Kb equal to 141 nM

// field: Kb; key: COc1cc(CN2CCC(CCN3CCC(O)(c4nc5ccccc5n4Cc4ccc(F)cc4)CC3)(Cc3ccc(F)cc3)C2=O)cc(OC)c1OC (centres unmarked) ; value = 155 nM

COc1ccc(C(=O)N2CCC(CCN3CCC(C(=O)c4nc5ccccc5n4Cc4ccc(F)cc4)CC3)(c3ccc4c(c3)OCO4)C2)c(OC)c1OC (centres unmarked) yielded Kb of 20.9 nM

Sure, the documented Kb for COc1ccc(C2(CCN3CCC(C(O)(c4ccccc4)c4ccccc4)CC3)CCN(C(=O)c3cc(OC)c(OC)c(OC)c3)C2)cc1OC (centres unmarked) is 724 nM

Lab note: measured Kb of COc1cc(CN2CCC(CCN3CCC(O)(c4nc5ccccc5n4Cc4ccc(F)cc4)CC3)(Cc3ccc(F)cc3F)C2=O)cc(OC)c1OC (centres unmarked) was 151 nM

GET /value?item= COc1cc(C(=O)N2CCC(CCN3CCC(C(=O)c4nc5ccccc5n4Cc4ccco4)CC3)(c3ccccc3)C2)cc(OC)c1OC (centres unmarked) &field=Kb returns 63.1 nM

Lab note: measured Kb of COc1cc(C(=O)N2CCC(CCN3CCC(C(=O)c4nc5ccccc5n4Cc4ccc(C(=O)O)cc4)CC3)(c3ccccc3)C2)cc(OC)c1OC (centres unmarked) was 891 nM

CCOc1cc(C(=O)N2CCC(CCN3CCC(C(=O)c4nc5ccccc5n4Cc4ccc(F)cc4)CC3)(c3ccc(OC)c(OC)c3)C2)cc(OCC)c1OCC (centres unmarked) yielded Kb of 20.4 nM

----------
# Measured Target: H1 receptor (Cavia porcellus, UniProt P31389)
# Construct: A piece of ileum, about 20 cm in length, is removed and cut into 2 cm pieces; from tissue; host or cells: ileum of male Hartley guinea pigs
# Test Protocol: Histamine (H1) antagonism in guinea pig ileum
# Format: cell-based
# Setup Conditions: read-out: H1 Receptor Antagonism, pA2, in vitro (converted)
# Description: Male Hartley guinea pigs, weighing 200-450 grams, are sacrificed by CO2 asphyxiation. A piece of ileum, about 20 cm in length, is removed and cut into 2 cm pieces. Each ileum piece is placed in an organ bath at 37° C. containing Tyrode's solution and is constantly aerated with 95% O2 /5%CO2. […] Contractions are measured with an isometric transducer (Grass FTO3C), and are recorded on a polygraph recorder and/or a computer. […]
Kb by entry:
Supply the numeric figure in nM, leaving out any unit text.

The examples below pair each entry with its known result.
{"columns": ["Compound", "Measured Target", "Result Value"],
 "data": [
  ["CCOCCn1c(C2(O)CCN(CCC3(c4ccc(Cl)c(Cl)c4)CCN(C(=O)c4cc(OC)c(OC)c(OC)c4)C3)CC2)nc2ccccc21 (single isomer, unassigned; (+))", "H1 receptor (Cavia porcellus, UniProt P31389)", 525],
  ["COc1cc(C(=O)N2CCC(CCN3CCC(C(=O)c4nc5ccccc5n4Cc4ccc(F)cc4)CC3)(c3ccc(C(F)(F)F)cc3)C2)cc(OC)c1OC (stereo not drawn)", "H1 receptor (Cavia porcellus, UniProt P31389)", 129]
]}

// Kb lookup, compound = COc1cc(CN2CCC(CCN3CCC(O)(c4nc5ccccc5n4Cc4ccc(F)cc4)CC3)(Cc3ccccc3)C2=O)cc(OC)c1OC (stereo not drawn) , result: 204
